# target_of_assay: T1, full length recombinant human 2N4R tau (human, UniProt P10636 1-758)
# T1 construct: bought from rPeptide; pHrodo Red maleimide-labelled where it stands in uptake assays; also called tau1-441; full length tau
# experiment_notes: SPR SCK, IgG on Protein A, tau in flow
Recorded log10 Kd for the following binders
assay_readout: log10 Kd (log10 of the value in nM)

binder	val
#44_VH4VK4_H06/pVL (antibody, V domains shown, also called Clone VH4_H06; #44_VH4_H06) VH: QVQLQESGPGLVKPSETLSLTCTVSGIDLSSYAMAWVRQAPGKGLEWIGVIDAAGHTFYASWVKGRFTISKDTSKTTVDLQMTSLTAEDTATYFCARDSGTFDPWGQGTLVTVSS VL: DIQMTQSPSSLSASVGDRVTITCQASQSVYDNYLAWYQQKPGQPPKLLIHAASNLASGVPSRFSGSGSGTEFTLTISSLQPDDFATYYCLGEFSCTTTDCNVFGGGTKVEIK	0.06
#44_VH4_H06/L2 (antibody, V domains shown, also called Clone VH4_H06/L2) VH: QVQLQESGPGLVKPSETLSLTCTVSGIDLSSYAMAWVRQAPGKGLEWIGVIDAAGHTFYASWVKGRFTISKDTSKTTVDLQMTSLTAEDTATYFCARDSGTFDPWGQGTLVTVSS VL: DIQMTQSPSSLSASVGDRVTITCQASQSVYDNYLAWYQQKPGQPPKLLIHAASNLASGVPSRFSGSGSGTEFTLTISSLQPDDFATYYCLGEFSCQDTDCNVFGGGTKVEIKR	0.27
#44_VH4VK4_H05/pVL (antibody, V domains shown, also called Clone VH4_H05; #44_VH4_H05) VH: QVQLQESGPGLVKPSETLSLTCTVSGIDLSSYAMAWVRQAPGKGLEWIGCIDRRGGTFYASWVKGRFTISKDTSKTTVDLQMTSLTAEDTATYFCARDAGHFDYWGQGTLVTVSS VL: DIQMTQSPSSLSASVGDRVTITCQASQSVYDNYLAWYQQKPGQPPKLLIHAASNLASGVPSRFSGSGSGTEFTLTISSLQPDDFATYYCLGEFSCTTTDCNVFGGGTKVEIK	0.68
#44_VH4VK4_H09/pVL (antibody, V domains shown, also called Clone VH4_H09; #44_VH4_H09) VH: QVQLQESGPGLVKPSETLSLTCTVSGIDLSSYAMAWVRQAPGKGLEWIGAIDARGNTFYASWVKGRFTISKDTSKTTVDLQMTSLTAEDTATYFCARDSGAFDPWGQGTLVTVSS VL: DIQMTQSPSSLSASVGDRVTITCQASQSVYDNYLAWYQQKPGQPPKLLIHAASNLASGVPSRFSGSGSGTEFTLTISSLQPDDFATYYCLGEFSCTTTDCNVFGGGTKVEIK	0.99
#44_VH4VK4_H06-H02/pVL (antibody, V domains shown, also called H06-02/pVL; Clone VH4_H06_H02) VH: QVQLQESGPGLVKPSETLSLTCTVSGIDLSSYAMAWVRQAPGKGLEWIGVIDAAGHTFYASWVKGRFTISKDTSKTTVDLQMTSLTAEDTATYFCARDRGDFDVWGQGTLVTVSS VL: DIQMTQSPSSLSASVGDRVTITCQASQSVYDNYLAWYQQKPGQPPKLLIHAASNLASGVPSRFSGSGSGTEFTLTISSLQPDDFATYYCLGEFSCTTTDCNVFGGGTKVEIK	-0.07
#44_VH4VK4_H07/pVL (antibody, V domains shown, also called Clone VH4_H07; #44_VH4_H07) VH: QVQLQESGPGLVKPSETLSLTCTVSGIDLSSYAMAWVRQAPGKGLEWIGAIDAAGNTFYASWVKGRFTISKDTSKTTVDLQMTSLTAEDTATYFCARDSGAFDPWGQGTLVTVSS VL: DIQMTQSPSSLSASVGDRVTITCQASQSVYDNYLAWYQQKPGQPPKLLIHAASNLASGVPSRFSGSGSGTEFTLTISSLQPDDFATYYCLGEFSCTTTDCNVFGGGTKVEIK	0.87
#44_VH4VK4_H10/pVL (antibody, V domains shown, also called Clone VH4_H10; #44_VH4_H10) VH: QVQLQESGPGLVKPSETLSLTCTVSGIDLSSYAMAWVRQAPGKGLEWIGAIDARGRTFYASWVKGRFTISKDTSKTTVDLQMTSLTAEDTATYFCARDSGAFDPWGQGTLVTVSS VL: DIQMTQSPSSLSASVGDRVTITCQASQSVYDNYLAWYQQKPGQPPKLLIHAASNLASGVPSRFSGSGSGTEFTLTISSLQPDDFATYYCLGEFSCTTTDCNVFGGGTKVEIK	1.00
#44_VH4VK4_H06-H04/pVL (antibody, V domains shown, also called H06-04/pVL; Clone VH4_H06_H04) VH: QVQLQESGPGLVKPSETLSLTCTVSGIDLSSYAMAWVRQAPGKGLEWIGVIDAAGHTFYASWVKGRFTISKDTSKTTVDLQMTSLTAEDTATYFCARDAGSFHPWGQGTLVTVSS VL: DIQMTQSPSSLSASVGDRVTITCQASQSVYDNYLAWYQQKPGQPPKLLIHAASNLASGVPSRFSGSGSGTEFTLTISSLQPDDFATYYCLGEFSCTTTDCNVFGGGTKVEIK	-0.14
#44_VH4_H07/L2 (antibody, V domains shown, also called Clone VH4_H07/L2) VH: QVQLQESGPGLVKPSETLSLTCTVSGIDLSSYAMAWVRQAPGKGLEWIGAIDAAGNTFYASWVKGRFTISKDTSKTTVDLQMTSLTAEDTATYFCARDSGAFDPWGQGTLVTVSS VL: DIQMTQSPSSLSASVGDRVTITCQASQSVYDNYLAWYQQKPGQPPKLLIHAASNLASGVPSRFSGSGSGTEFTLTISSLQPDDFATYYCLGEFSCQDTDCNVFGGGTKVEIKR	1.40
#44_VH4_H13/L2 (antibody, V domains shown, also called Clone VH4_H13/L2) VH: QVQLQESGPGLVKPSETLSLTCTVSGIDLSSYAMAWVRQAPGKGLEWIGAIDSAGNTFYASWVKGRFTISKDTSKTTVDLQMTSLTAEDTATYFCARDSGAFDPWGQGTLVTVSS VL: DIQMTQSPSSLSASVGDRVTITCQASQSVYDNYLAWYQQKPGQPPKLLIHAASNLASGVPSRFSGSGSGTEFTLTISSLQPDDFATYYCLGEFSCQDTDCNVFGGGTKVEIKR	1.37
